System: SUDIPGXIII (diffuse intrinsic pontine glioma line)
Test: area under dose-response curve of % growth inhibition (log2 RLU vs DMSO / staurosporine), 1e-11 to 1e-4 M (% x log10 M); higher = more growth inhibition
// values below are reported area under dose-response curve
PARAMETER_MEASURED: area under dose-response curve

structure=O=C([C@@H](Cc1cccc(C(F)(F)F)c1)NS(=O)(=O)c1cc(F)c2c(c1)CCNC2)N1CCCC1 parameter_measured="area under dose-response curve" reported=1.68
structure=CCNC(=O)c1noc(-c2cc(C(C)C)c(O)cc2O)c1-c1ccc(CN2CCOCC2)cc1 parameter_measured="area under dose-response curve" reported=213
structure=COc1ccc(-c2nc(N3CCOCC3)c3sc(CN(C)c4ncc(C(=O)NO)cn4)cc3n2)cn1 parameter_measured="area under dose-response curve" reported=188
structure=Cc1nc(Nc2ncc(C(=O)Nc3c(C)cccc3Cl)s2)cc(N2CCN(CCO)CC2)n1 parameter_measured="area under dose-response curve" reported=16.1
structure=CN1CCCN(C(=O)c2cccc(-c3ccc(/C=C4/C(=O)Nc5ccc(Cl)cc54)o3)c2)CC1 parameter_measured="area under dose-response curve" reported=112
structure=COc1ccc(Cn2ccc3ccc(C(=O)NO)cc32)cc1 parameter_measured="area under dose-response curve" reported=30.1
structure=CC(C)(C)c1cnc(CSc2cnc(NC(=O)C3CCNCC3)s2)o1 parameter_measured="area under dose-response curve" reported=176
structure=Cc1ccc(C(=O)Nc2ccc(CN3CCN(C)CC3)c(C(F)(F)F)c2)cc1C#Cc1cnc2cccnn12 parameter_measured="area under dose-response curve" reported=132
